Provenance of the data: paper PMC4537050

- subject.of.test: T1, FGF17 (UniProt O60258 23-216)
- T1 construct: fibroblast growth factor 17 (FGF17)
- T1 sequence (looked up): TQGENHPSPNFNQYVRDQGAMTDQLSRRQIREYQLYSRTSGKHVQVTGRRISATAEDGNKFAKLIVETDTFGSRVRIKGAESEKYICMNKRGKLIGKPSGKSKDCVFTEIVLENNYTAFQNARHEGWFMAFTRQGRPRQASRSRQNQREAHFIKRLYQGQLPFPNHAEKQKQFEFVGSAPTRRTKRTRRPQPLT
- measurement.protocol: SPR; BIAcore X-100; FGF8b (20 μg/ml in 10 mM sodium acetate, pH 6.0) or other FGFs (10 mM sodium acetate at optimal pH) immobilised on a CM5 sensor chip by EDC/NHS; peptide injected (ARPCA 8 μM to 2000 μM), 4 min at 30 μl/min, 10 min dissociation, in HBS; equilibrium values fitted with the Langmuir equation for monovalent binding
- reported.conditions: both partners purified
outcome.measure: pKd
Here pKd is given on a logarithmic scale as minus log10 of the concentration in mol/L.

Give its pKd value. Item: Ac-ARPCA-NH2 (long pentraxin-3 (PTX3), residues 100-104 of the N-terminal extension; source: synthetic peptide, provided by R. Longhi and A. Gori (CNR, Milano, Italy)) [Ac-ARPCA-NH2, acetylated pentapeptide corresponding to PTX3(100-104)]
3.32
